Target: T1, EN2 (Engrailed-2), recombinant (human, UniProt P19622 1-333)
T1 sequence: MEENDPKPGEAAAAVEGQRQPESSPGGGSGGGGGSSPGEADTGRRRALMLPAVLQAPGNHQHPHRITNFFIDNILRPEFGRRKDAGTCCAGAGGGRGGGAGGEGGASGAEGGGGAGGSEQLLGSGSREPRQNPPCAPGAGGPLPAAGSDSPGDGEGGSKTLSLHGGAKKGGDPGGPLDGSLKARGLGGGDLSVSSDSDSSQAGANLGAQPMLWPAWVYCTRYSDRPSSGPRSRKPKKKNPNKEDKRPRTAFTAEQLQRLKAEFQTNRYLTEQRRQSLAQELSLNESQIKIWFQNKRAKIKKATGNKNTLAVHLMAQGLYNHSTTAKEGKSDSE
Experiment: magnetic-bead fluorescence assay (His-EN2 on NTA beads); 5 mM Mg2+; 20 mM Tris-HCl, 50 mM NaCl, 5 mM KCl, 5 mM MgCl2, pH 8.0, room temperature, 1 h
Settings: protein: recombinant; tags: N-terminal His (pET28a); label: 5'-FAM
observed.property: Kd (nM)
Give bare numbers, in nM.

Inquiry: Suppose we examine the binder AGCGGATCCGAGGTGAGGAGCGCCGGTGAGACTCCTTCATTCTATCTGCT (structured_DNA) [EBA (trimmed H90)] ; what Kd value has been reported?
Reply text: 8.26
